This listing pairs binders with measured koff.
# measurement_target: T1, Human ST2 (human, UniProt Q01638 19-328, limits assumed)
# T1 construct: also called human ST2 protein; Interleukin 1 receptor-like 1
# T1 sequence (looked up): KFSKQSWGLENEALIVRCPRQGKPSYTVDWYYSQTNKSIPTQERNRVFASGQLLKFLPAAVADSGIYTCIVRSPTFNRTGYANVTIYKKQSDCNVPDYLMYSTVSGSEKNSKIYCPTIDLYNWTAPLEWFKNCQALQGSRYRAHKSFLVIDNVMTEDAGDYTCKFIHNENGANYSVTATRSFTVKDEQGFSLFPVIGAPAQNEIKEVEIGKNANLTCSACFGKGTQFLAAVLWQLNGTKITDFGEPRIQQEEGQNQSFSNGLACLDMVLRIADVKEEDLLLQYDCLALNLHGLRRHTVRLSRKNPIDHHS
# test_method_notes: SPR (Carterra), antibody immobilized, ST2 analyte
# Experimental: Binding of the reformatted human ST2 antibodies to the human and mouse ST2 proteins was evaluated by surface plasmon resonance (SPR), using a high throughput antibody screening and characterization platform from Carterra (Salt Lake City, Utah).
Enter your answer as a number in s⁻¹; do not include the unit.

# count of solved cases: 2
binder	unit_symbol	assay_result
Human ST2 IgG1 Antibody 82 (antibody, V domains shown, IgG1; also called ST2 Antibody 82) VH: QVQLVQSGAEVKKPGASVKVSCKASGYTFTENEMHWVRQAPGQGLEWMGWISAYNGDTNYAQKFQGRVTMTRDTSTSTVYMELSSLRSEDTAVYYCAKEVRLDDDEMWYFDLWGRGTLVTVSS VL: DIQMTQSPSSLSASVGDRVTITCRASQDINNFLVWYQQKPGKAPKLLIYDASNLETGVPSRFSGSGSGTDFTLTISSLQPEDFATYYCQQAYSFPLTFGGGTKVEIKR	s⁻¹	0.003
Human ST2 IgG1 Antibody 58 (antibody, V domains shown, IgG1; also called ST2 Antibody 58) VH: EVQLLESGAEVKKPGSSVKVSCKASGGTFSSYAISWVRQAPGQGLEWMGGIIPIFGTANYAQKFQGRVTITADKSTSTAYMELSSLRSEDTAVYYCARPRLAVAGGWYFDLWGRGTLVTVSS VL: DIQMTQSPSSLSASVGDRVTITCQASQDISNYLNWYQQKPGKAPKLLIYAASSLQSGVPSRFSGSGSGTDFTLTISSLQPEDFATYYCQQSFSSTPTFGQGTKLEIKR	s⁻¹	0.14

Here is the next item to consider.
I have this binder here, Human ST2 IgG1 Antibody 1 (antibody, V domains shown, IgG1; also called ST2 Antibody 1) VH: QVQLVQSGAEVKKPGSSVKVSCKASGGTFSSYAISWVRQAPGQGLEWMGGIIPIFGTANYAQKFQGRVTITADESTSTAYMELSSLRSEDTAVYYCAKSILGGRIFGGYFDLWGRGTLVTVSS VL: DIVMTQSPLSLPVTPGEPASISCRSSQSLLHSNGYNYLDWYLQKPGQSPQLLIYAASSLQSGVPDRFSGSGSGTDFTLKISRVEAEDVGVYYCMQALQTPPTFGQGTKVEIKR , and I need its recorded koff. 0.072
